TARGET DESC: RSV strain A2 pre-fusion F, single-chain triple mutant (SC-TM) construct (respiratory syncytial virus subgroup A …)
METHOD DESCRIPTION: cell-based or functional assay
MEASURED ENDPOINT: plaque-reduction neutralization of RSV A2 (IC50) (µg/mL)
Give just the number in µg/mL; leave the unit off.

Some solved entries appear below for comparison.
binder="hRSV97 (antibody, V domains shown, also called mAb hRSV97) VH: EVQLVESGGTLVQPGRSLRLSCAASGFNFEEYAMHWVRQVPGKGLEWVARINWNGGIIGYADSVKGRFTISRDNAKKSLYLQMNSLRTDDSALYYCGKDVFWAVAGTGGPIDSWGQGTLVTVSS VL: DIVMTQSPSSLSASIGDRVTISCRASRDISNYLAWYQQKSGKVPKLLIYAASTLESGVPSRFSGSGSGTDFTLTISSLQPEDVATYYCQNYNSAQMCSFGQGPSLEIK" unit=µg/mL result_value=0.35
binder="hRSV20 (antibody, V domains shown, also called mAb hRSV20) VH: QVQLVESGGGLVQPGRSLRLSCAASGFTFDDYAMHWVRQAPGRGLEWVSGISWNSGIAVYADSVKGRFTISRDNAKKSLYLQINSLRAEDTALYYCVKDNYASGSYSSYYYYYGLDLWGQGTLVTVSS VL: EIVMTQSPATLSVSPGERATLSCRASQSIISNLAWYQQKPGQAPRLLIYGVSTRATGIPARFSGSGSDTEFTLSISSLQSEDFAVYYCQQYNNWPITFGQGTRLEIK" unit=µg/mL result_value=0.045

Consider the binder hRSV90 (human mAb, IgG) (antibody, V domains shown, IgG1, kappa; also called mAb hRSV90) VH: EVQLVESGGGLVQPRRSLRLSCAASGFTFDDYTIHWVRQAPGKGLEWVSGITWNSGYIGYADSVKGRFTISRDNARNSLYLQMNSLRAEDTALYYCVRDAYVSGSDYYYYGLDVWGRGTLVTVSS VL: EIVMTSSPATLSVSPGERVTLFCRASQSVISNLAWYQQKSGQAPRLLIYGASTRATGIPSRFSGSGSGTEFTLTISSLQSEDFAVYFCQQYNNWPLTFGGGTQVNVQ and give its measured plaque-reduction neutralization of RSV A2 (IC50).
0.004
